# Test system: SK-MEL-28 melanoma
# method-summary: NCI tumour cell line growth inhibition, 48 h
Reported GI50 values are given for each entry in this list.

# molecule, GI50
rows = [
    ("CCC[CH2][Sn]([CH2]CCC)([O]C(=O)C(N)CSC)[O]C(=O)C(N)CSC (centres undefined)", "5.86 µM"),
    ("CC[Si](CC)(CC)OC[C@]1([C@@H]2COC(C)(C)O2)CC=CC(=O)O1", "19.8 µM"),
    ("NC(=N\\N=C/c1cccc([N+](=O)[O-])c1)/C(N)=N\\N=C/c1cccc([N+](=O)[O-])c1", "> 100 µM"),
    ("COc1ccc(-c2ccc(/C=N/n3c(COc4ccc(Cl)cc4Cl)nn(CN4CCN(C)CC4)c3=S)o2)c([N+](=O)[O-])c1", "47.8 µM"),
]

###

# System: HL-60(TB) leukemia
# method-summary: NCI tumour cell line growth inhibition, 48 h

# molecule, measured-on, TGI
records = [
    ("CN(C(=O)Cc1ccc(Cl)c(Cl)c1)[C@@H]1CCCC[C@H]1[N+]1(C)CC=CC1", "HL-60(TB) leukemia", "> 100 µM"),
    ("CCn1c(O)c(C=N)c(=O)n(CC)c1=O", "HL-60(TB) leukemia", "> 100 µM"),
    ("COc1cc2cc(C(=O)Nc3cc(N)c4ccccc4c3CCCl)[nH]c2c(OC)c1OC", "HL-60(TB) leukemia", "0.237 µM"),
    ("CCN(CC)CCNC(=O)c1nn(C)c(=S)[nH]c1=S", "HL-60(TB) leukemia", "> 100 µM"),
    ("Cc1cccc(C)c1NC(=O)CCc1nnc2s/c(=C\\c3ccc(Cl)cc3)c(=O)n12", "HL-60(TB) leukemia", "> 100 µM"),
    ("CC/C=C/C(=O)CC(O)(C(F)(F)F)C(F)(F)F", "HL-60(TB) leukemia", "> 100 µM"),
    ("COC(=O)C1=C(\\c2ccccc2)c2ccccc2C(=O)N(C2CCCCC2)/C=C\\1", "HL-60(TB) leukemia", "> 100 µM"),
    ("CC1(C)CCCCCCC2OC2CCCCCC(C)(C)C1=O (stereo unspecified)", "HL-60(TB) leukemia", "57 µM"),
    ("COc1ccc(C2=C(c3ccc(OC)c(OC)c3)C(=O)OC2)cc1", "HL-60(TB) leukemia", "1.51 µM"),
    ("O=C(c1ccco1)N(C(=S)N1CCN(c2ccccn2)CC1)C1CCCCC1", "HL-60(TB) leukemia", "> 100 µM"),
    ("CC1=NN(c2nc(N)nc(CSCc3nc(N)nc(N(C)C)n3)n2)C(C)(C)C1", "HL-60(TB) leukemia", "> 100 µM"),
    ("CC(C)C1CCC/C=C/C=C/C=C/C=C/C(OC2OC(C)C(O)C(N)C2O)CC2OC(O)(CC(O)CC(O)C(O)CCC(=O)O1)CC(O)C2C(=O)O (stereo unspecified)", "HL-60(TB) leukemia", "> 52.5 µM"),
    ("CC(=O)OC1COC(n2c(-c3ccc(Cl)cc3)cc(-c3ccccc3)c(C#N)c2=S)C(OC(C)=O)C1OC(C)=O (stereo unspecified)", "HL-60(TB) leukemia", "> 89.9 µM"),
    ("CC1(C)CC(n2cnc(-c3ccc(F)cc3)c2-c2ccnc(N)n2)CC(C)(C)N1", "HL-60(TB) leukemia", "> 25 µM"),
    ("Cn1c(NS(=O)(=O)c2ccccc2)nc2ccccc21", "HL-60(TB) leukemia", "> 100 µM"),
    ("CC(=O)N(CCc1ccccc1)C(C#N)c1ccc(OCCCCCCCCCCOc2ccc(C(C#N)N(CCc3ccccc3)C(C)=O)cc2)cc1 (stereo unspecified)", "HL-60(TB) leukemia", "> 100 µM"),
]
